# STUDY_TARGET: 5-HT1A receptor (Rattus norvegicus, UniProt P19327)
# Construct: The supernatant is discarded and the precipitate (membrane receptor) is stocked; from tissue; host or cells: SD rat cerebral cortex membranes
# Sequence (P19327 whole entry): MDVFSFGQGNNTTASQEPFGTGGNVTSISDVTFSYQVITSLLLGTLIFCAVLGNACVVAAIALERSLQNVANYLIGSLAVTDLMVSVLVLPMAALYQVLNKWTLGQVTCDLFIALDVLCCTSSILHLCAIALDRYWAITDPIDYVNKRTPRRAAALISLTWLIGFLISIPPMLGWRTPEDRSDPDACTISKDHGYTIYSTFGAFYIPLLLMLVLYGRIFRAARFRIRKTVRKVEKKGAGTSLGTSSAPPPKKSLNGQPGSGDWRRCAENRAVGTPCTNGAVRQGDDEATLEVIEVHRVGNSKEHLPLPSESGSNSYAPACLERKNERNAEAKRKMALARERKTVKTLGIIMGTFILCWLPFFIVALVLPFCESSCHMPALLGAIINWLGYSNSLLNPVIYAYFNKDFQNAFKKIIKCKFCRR
# ASSAY_PROTOCOL: In vitro competitive binding test to 5-HT1A receptor ([3H]-8-OH-DPAT, rat cerebral cortex membranes)
# MEASUREMENT_CONTEXT: 10 μmol/L compound; hydrochloride salts; rat cerebral cortex membrane; unit (I %); read-out: 5-HT1A affinity [3H]-8-OH-DPAT (inhibition rate of radioligand binding)
READOUT_NAME: inhibition at 10 µM (%)
Write down the numeric answer in % and omit the unit.

Query: Tell me its inhibition at 10 µM given CN(CCN1CCN(c2cccc(C(F)(F)F)c2)CC1)c1cccc(C#N)c1 [III-2] as the entry.
Result: 119

Query: Tell me its inhibition at 10 µM given Cc1cccc(N2CCN(CCCN(C)c3cccc(C#N)c3)CC2)c1C [III-11] as the entry.
Result: 102

Query: Tell me its inhibition at 10 µM given CN(CCCN1CCN(c2cccc(Cl)c2Cl)CC1)c1cccc(C#N)c1 [III-13] as the entry.
Result: 119

Query: Tell me its inhibition at 10 µM given Cc1cccc(N2CCN(CCN(C)c3cccc(C#N)c3)CC2)c1C [III-5] as the entry.
Result: 121

Query: Tell me its inhibition at 10 µM given COc1c(Cl)ncnc1N1CCN(CCN(C)c2cccc(C#N)c2)CC1 [III-6] as the entry.
Result: 91.6

Query: Tell me its inhibition at 10 µM given COc1cncnc1N1CCN(CCCN(C)c2cccc(C#N)c2)CC1 [III-12] as the entry.
Result: 114

Query: Tell me its inhibition at 10 µM given CN(CCCN1CCN(c2cccc(Cl)c2)CC1)c1cccc(C#N)c1 [III-10] as the entry.
Result: 109

Query: Tell me its inhibition at 10 µM given CN(CCN1CCN(c2cccc(Cl)c2)CC1)c1cccc(C#N)c1 [III-3] as the entry.
Result: 155

Query: Tell me its inhibition at 10 µM given COc1ccccc1N1CCN(CCN(C)c2cccc(C#N)c2)CC1 [III-1] as the entry.
Result: 154

* * *

Answer each item with its documented inhibition at 10 µM.
# STUDY_TARGET: 5-HT1A receptor (Rattus norvegicus, UniProt P19327)
# Construct: The supernatant is discarded and the precipitate (membrane receptor) is stocked; from tissue; host or cells: SD rat cerebral cortex membranes
# ASSAY_PROTOCOL: In vitro competitive binding test to 5-HT1A receptor ([3H]-8-OH-DPAT, rat cerebral cortex membranes)
# MEASUREMENT_CONTEXT: 10 μmol/L compound; hydrochloride salts; rat cerebral cortex membrane; unit (I %); read-out: 5-HT1A affinity [3H]-8-OH-DPAT (inhibition rate of radioligand binding)
Write down the numeric answer in % and omit the unit.

Query: Specify the recorded inhibition at 10 µM for COc1ccccc1N1CCN(CCCN(C)c2cccc(C#N)c2)CC1 , system: 5-HT1A receptor (Rattus norvegicus, UniProt P19327).
Result: 125

Query: Specify the recorded inhibition at 10 µM for CN(CCCN1CCN(c2cccc(C(F)(F)F)c2)CC1)c1cccc(C#N)c1 , system: 5-HT1A receptor (Rattus norvegicus, UniProt P19327).
Result: 108

Query: Specify the recorded inhibition at 10 µM for CCN(CCCN1CCN(c2ccccc2OC)CC1)c1cccc(C#N)c1 , system: 5-HT1A receptor (Rattus norvegicus, UniProt P19327).
Result: 112

Query: Specify the recorded inhibition at 10 µM for COc1cncnc1N1CCN(CCN(C)c2cccc(C#N)c2)CC1 , system: 5-HT1A receptor (Rattus norvegicus, UniProt P19327).
Result: 83.2

Query: Specify the recorded inhibition at 10 µM for CN(CCN1CCN(c2cccc(Cl)c2Cl)CC1)c1cccc(C#N)c1 , system: 5-HT1A receptor (Rattus norvegicus, UniProt P19327).
Result: 126

* * *

# STUDY_TARGET: hSERT (Homo sapiens, UniProt P31645)
# Sequence (P31645 whole entry): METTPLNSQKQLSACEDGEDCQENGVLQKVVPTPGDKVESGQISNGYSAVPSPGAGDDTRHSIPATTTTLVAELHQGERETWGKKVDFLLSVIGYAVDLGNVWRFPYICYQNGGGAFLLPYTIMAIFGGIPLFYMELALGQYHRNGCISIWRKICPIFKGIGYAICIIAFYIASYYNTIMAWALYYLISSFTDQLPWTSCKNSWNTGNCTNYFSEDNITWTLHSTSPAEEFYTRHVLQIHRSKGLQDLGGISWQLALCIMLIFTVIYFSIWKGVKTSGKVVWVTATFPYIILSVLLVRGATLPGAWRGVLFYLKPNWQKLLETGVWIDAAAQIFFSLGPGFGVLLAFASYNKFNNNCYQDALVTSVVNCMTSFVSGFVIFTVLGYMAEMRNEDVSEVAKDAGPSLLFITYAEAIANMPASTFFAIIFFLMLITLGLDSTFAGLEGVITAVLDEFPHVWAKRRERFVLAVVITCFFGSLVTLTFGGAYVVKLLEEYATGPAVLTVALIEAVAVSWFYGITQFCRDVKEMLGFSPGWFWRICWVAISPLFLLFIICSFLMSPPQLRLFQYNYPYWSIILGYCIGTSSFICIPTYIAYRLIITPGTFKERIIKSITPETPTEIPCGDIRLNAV
# ASSAY_PROTOCOL: In vitro inhibition of serotonin reuptake ([3H]-5-HT) in cells stably expressing hSERT
READOUT_NAME: IC50 (nM)
Write down the numeric answer in nM and omit the unit.

Query: Tell me its IC50 given CN(CCCN1CCN(c2cccc(Cl)c2)CC1)c1cccc(C#N)c1 as the entry.
Result: 138

Query: Tell me its IC50 given CN(CCCN1CCN(c2cccc(C(F)(F)F)c2)CC1)c1cccc(C#N)c1 as the entry.
Result: 246

* * *

# STUDY_TARGET: 5-HT2A receptor (Rattus norvegicus, UniProt P14842)
# Construct: The supernatant is discarded and the precipitate (membrane receptor) is stocked; from tissue; host or cells: SD rat cerebral cortex membranes
# Sequence (P14842 whole entry): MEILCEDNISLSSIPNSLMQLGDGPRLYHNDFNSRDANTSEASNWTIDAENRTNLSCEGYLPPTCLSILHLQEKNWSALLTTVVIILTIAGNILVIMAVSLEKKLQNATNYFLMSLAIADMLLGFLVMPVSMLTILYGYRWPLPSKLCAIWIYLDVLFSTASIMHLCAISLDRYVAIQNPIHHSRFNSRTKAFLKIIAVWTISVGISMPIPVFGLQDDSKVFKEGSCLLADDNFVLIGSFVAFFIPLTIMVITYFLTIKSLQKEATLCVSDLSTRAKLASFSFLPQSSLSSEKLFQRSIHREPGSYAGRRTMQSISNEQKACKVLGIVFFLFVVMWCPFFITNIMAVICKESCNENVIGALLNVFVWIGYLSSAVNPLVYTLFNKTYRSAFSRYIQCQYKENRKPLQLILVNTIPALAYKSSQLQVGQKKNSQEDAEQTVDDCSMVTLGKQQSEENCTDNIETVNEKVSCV
# ASSAY_PROTOCOL: In vitro competitive binding test to 5-HT2A receptor ([3H]-Ketanserin, rat cerebral cortex membranes)
# MEASUREMENT_CONTEXT: 10 μmol/L compound; hydrochloride salts; rat cerebral cortex membrane; unit (I %); read-out: 5-HT2A affinity [3H]-Ketanserin (inhibition rate of radioligand binding)
READOUT_NAME: inhibition at 10 µM (%)
Write down the numeric answer in % and omit the unit.

Query: Tell me its inhibition at 10 µM given COc1c(Cl)ncnc1N1CCN(CCN(C)c2cccc(C#N)c2)CC1 as the entry.
Result: 84.5

Query: Tell me its inhibition at 10 µM given COc1ccccc1N1CCN(CCCN(C)c2cccc(C#N)c2)CC1 as the entry.
Result: 154

Query: Tell me its inhibition at 10 µM given CN(CCN1CCN(c2cccc(C(F)(F)F)c2)CC1)c1cccc(C#N)c1 as the entry.
Result: 131

Query: Tell me its inhibition at 10 µM given CN(CCCN1CCN(c2cccc(C(F)(F)F)c2)CC1)c1cccc(C#N)c1 as the entry.
Result: 111

Query: Tell me its inhibition at 10 µM given COc1cncnc1N1CCN(CCN(C)c2cccc(C#N)c2)CC1 as the entry.
Result: 101

Query: Tell me its inhibition at 10 µM given COc1ccccc1N1CCN(CCN(C)c2cccc(C#N)c2)CC1 as the entry.
Result: 98.9

Query: Tell me its inhibition at 10 µM given CN(CCN1CCN(c2cccc(Cl)c2)CC1)c1cccc(C#N)c1 as the entry.
Result: 107

Query: Tell me its inhibition at 10 µM given CN(CCN1CCN(c2cccc(Cl)c2Cl)CC1)c1cccc(C#N)c1 as the entry.
Result: 104

Query: Tell me its inhibition at 10 µM given Cc1cccc(N2CCN(CCCN(C)c3cccc(C#N)c3)CC2)c1C as the entry.
Result: 145

Query: Tell me its inhibition at 10 µM given COc1cncnc1N1CCN(CCCN(C)c2cccc(C#N)c2)CC1 as the entry.
Result: 132

* * *

# STUDY_TARGET: hSERT (Homo sapiens, UniProt P31645)
# ASSAY_PROTOCOL: In vitro inhibition of serotonin reuptake ([3H]-5-HT) in cells stably expressing hSERT
# MEASUREMENT_CONTEXT: read-out: Inhibition rates of SERT reuptake [3H]-5-HT
Answer each item with its documented inhibition at 10 µM.

Query: Tell me its inhibition at 10 µM given Cc1cccc(N2CCN(CCCN(C)c3cccc(C#N)c3)CC2)c1C as the entry.
Result: 96.6%

Query: Tell me its inhibition at 10 µM given COc1c(Cl)ncnc1N1CCN(CCN(C)c2cccc(C#N)c2)CC1 as the entry.
Result: 98.3%

Query: Tell me its inhibition at 10 µM given COc1ccccc1N1CCN(CCN(C)c2cccc(C#N)c2)CC1 as the entry.
Result: 97.3%

Query: Tell me its inhibition at 10 µM given COc1cncnc1N1CCN(CCCN(C)c2cccc(C#N)c2)CC1 as the entry.
Result: 94.4%

Query: Tell me its inhibition at 10 µM given CN(CCCN1CCN(c2cccc(Cl)c2Cl)CC1)c1cccc(C#N)c1 as the entry.
Result: 86.9%

Query: Tell me its inhibition at 10 µM given CN(CCN1CCN(c2cccc(Cl)c2Cl)CC1)c1cccc(C#N)c1 as the entry.
Result: 93.4%

Query: Tell me its inhibition at 10 µM given CN(CCN1CCN(c2cccc(C(F)(F)F)c2)CC1)c1cccc(C#N)c1 as the entry.
Result: 97.8%

Query: Tell me its inhibition at 10 µM given COc1ccccc1N1CCN(CCCN(C)c2cccc(C#N)c2)CC1 as the entry.
Result: 104%

Query: Tell me its inhibition at 10 µM given Cc1cccc(N2CCN(CCN(C)c3cccc(C#N)c3)CC2)c1C as the entry.
Result: 99.7%

Query: Tell me its inhibition at 10 µM given CN(CCCN1CCN(c2cccc(Cl)c2)CC1)c1cccc(C#N)c1 as the entry.
Result: 94.3%

Query: Tell me its inhibition at 10 µM given COc1cncnc1N1CCN(CCN(C)c2cccc(C#N)c2)CC1 as the entry.
Result: 81.7%

Query: Tell me its inhibition at 10 µM given CN(CCN1CCN(c2cccc(Cl)c2)CC1)c1cccc(C#N)c1 as the entry.
Result: 98.3%

Query: Tell me its inhibition at 10 µM given CCN(CCCN1CCN(c2ccccc2OC)CC1)c1cccc(C#N)c1 as the entry.
Result: 98.2%

Query: Tell me its inhibition at 10 µM given CN(CCCN1CCN(c2cccc(C(F)(F)F)c2)CC1)c1cccc(C#N)c1 as the entry.
Result: 98.3%
